Cited source: patent US20220104493A1

# System: Eleusine indica (ELEIN)
# ASSAY DETAILS: Post-emergence efficacy, Method A
# Assay type: in vivo
# RECORDED CONDITIONS: 500 g/Ha, 100=total damage to plant, 0=no damage, evaluated after 7 and 14 days, read-out: Control of weed species after post-emergence application, ELEIN
PROPERTY NAME: pest or weed control at 500 g/ha (%)
The figure you give is taken to be in %; do not add the unit.

Query string: Need pest or weed control at 500 g/ha, item O=C(O)C[n+]1ccc(-c2ncno2)cc1
Result string: 50

Query string: Field request: pest or weed control at 500 g/ha | item: O=S(=O)([O-])C[n+]1ccc(-c2csnn2)cc1
Result string: 20

Query string: Can you look up the measured pest or weed control at 500 g/ha of O=S(=O)([O-])CC[n+]1ccc(-c2ncco2)cc1 for me?
Result string: 0

Query string: If you can, please state the reported pest or weed control at 500 g/ha value of O=C(O)CC[n+]1ccc(-c2ncno2)cc1 .
Result string: 40

Query string: Bench note: what pest or weed control at 500 g/ha did O=C(O)CC[n+]1ccc(-c2nc(O)ns2)cc1 show?
Result string: 10

Query string: Request the reported pest or weed control at 500 g/ha associated with O=S(=O)([O-])C[n+]1ccc(-c2nc(C(F)(F)F)co2)cc1
Result string: 60

Query string: Data request, read-out pest or weed control at 500 g/ha, for O=S(=O)([O-])OCC[n+]1ccc(-c2nnco2)cc1
Result string: 20

Query string: Reported pest or weed control at 500 g/ha for CS(=O)(=O)[N-]C(=O)C[n+]1ccc(-c2ncns2)cc1 : what is it?
Result string: 50

Query string: Quick one: pest or weed control at 500 g/ha for O=C(O)C[n+]1ccc(-c2nccs2)cc1 ?
Result string: 0

Query string: Would you mind telling me what pest or weed control at 500 g/ha value was observed for Cc1nc(-c2cc[n+](CCCS(=O)(=O)[O-])cc2)no1 ?
Result string: 20

Query string: Fill in: pest or weed control at 500 g/ha of O=S(=O)([O-])C[n+]1ccc(-c2nc(C(F)(F)F)ns2)cc1 is ___
Result string: 100

Query string: Which value of pest or weed control at 500 g/ha has been reported for N#Cc1nsc(-c2cc[n+](CCC(=O)O)cc2)n1 in the records?
Result string: 80

Query string: # query: pest or weed control at 500 g/ha of entry O=S(=O)([O-])C[n+]1ccc(-c2ccsn2)cc1
Result string: 0

Query string: Given O=C(O)CC[n+]1ccc(-c2nc(C(F)(F)F)co2)cc1 , state its recorded pest or weed control at 500 g/ha.
Result string: 50

Query string: Quick one: pest or weed control at 500 g/ha of Cn1nnc(-c2cc[n+](CCS(=O)(=O)[O-])cc2)n1 ?
Result string: 0

Query string: Recorded pest or weed control at 500 g/ha for O=C(O)CC[n+]1ccc(-c2ncns2)cc1 , please?
Result string: 70

Query string: Form field: reported pest or weed control at 500 g/ha of O=S(=O)([O-])CC[n+]1ccc(-c2nc(C(F)(F)F)co2)cc1
Result string: 0

Query string: What does the record list as pest or weed control at 500 g/ha for Cc1noc(-c2cc[n+](CCC(=O)O)cc2)n1 ?
Result string: 40

Query string: May I ask what pest or weed control at 500 g/ha has been recorded for O=C(O)C[n+]1ccc(-c2nc(C(F)(F)F)co2)cc1 ?
Result string: 10

Query string: Look up pest or weed control at 500 g/ha: O=S(=O)([O-])CC[n+]1ccc(-c2cnns2)cc1
Result string: 30

Query string: Bench note: what pest or weed control at 500 g/ha did COC(=O)C[n+]1ccc(-c2nnco2)cc1 show?
Result string: 10

Query string: I have this compound here, Cc1nnc(-c2cc[n+](CCCS(=O)(=O)[O-])cc2)o1 , and I need its recorded pest or weed control at 500 g/ha.
Result string: 10

Query string: What pest or weed control at 500 g/ha value was documented for this compound, O=C(O)C[n+]1ccc(-c2csnn2)cc1 ?
Result string: 0

Query string: # get_value(readout='pest or weed control at 500 g/ha', item= O=S(=O)([O-])CC[n+]1ccc(-c2nc(C(F)(F)F)ns2)cc1 )
Result string: 80

Query string: # lookup: pest or weed control at 500 g/ha of O=C(O)C[n+]1ccc(-c2ncns2)cc1
Result string: 90

Query string: Find the recorded pest or weed control at 500 g/ha belonging to O=S(=O)([O-])CC[n+]1ccc(-c2ccno2)cc1 and report it.
Result string: 0

Query string: Requested field: pest or weed control at 500 g/ha. Item: O=S(=O)([O-])CC[n+]1ccc(-c2ncns2)cc1
Result string: 80

Query string: // query pest or weed control at 500 g/ha value for entry N#Cc1csc(-c2cc[n+](CCC(=O)O)cc2)n1
Result string: 0

Query string: Requested read-out: pest or weed control at 500 g/ha. Entry: O=S(=O)([O-])C[n+]1ccc(-c2nccs2)cc1
Result string: 50

Query string: Sample O=S(=O)([O-])C[n+]1ccc(-c2ccns2)cc1 — what was its pest or weed control at 500 g/ha?
Result string: 0

Query string: May I ask what pest or weed control at 500 g/ha has been recorded for O=S(=O)([O-])CCC[n+]1ccc(-c2cnon2)cc1 ?
Result string: 30

Query string: Query (compound): O=C(O)C[n+]1ccc(-c2nc(O)ns2)cc1 ; field requested: pest or weed control at 500 g/ha
Result string: 10

Query string: What does the data say about its pest or weed control at 500 g/ha? Entry: Nc1nnc(-c2cc[n+](CC(=O)O)cc2)s1
Result string: 40

Query string: Reported pest or weed control at 500 g/ha for O=S(=O)([O-])C[n+]1ccc(-c2nc(Br)ns2)cc1 : what is it?
Result string: 90

Query string: // lookup pest or weed control at 500 g/ha for COC(=O)C[n+]1ccc(-c2cnns2)cc1
Result string: 30

Query string: Suppose we examine the compound O=C(O)C[n+]1ccc(-c2ccno2)cc1 ; what pest or weed control at 500 g/ha value has been reported?
Result string: 0

Query string: Given the compound OCC[n+]1ccc(-c2nnc(-c3ccccc3)o2)cc1 [Compound A69, 2,2,2-trifluoroacetate] , what is its reported pest or weed control at 500 g/ha?
Result string: 30

Query string: Name the reported pest or weed control at 500 g/ha value associated with the compound Cn1nnnc1-c1cc[n+](CCS(=O)(=O)[O-])cc1
Result string: 10

Query string: Form field: reported pest or weed control at 500 g/ha of O=S(=O)([O-])CCC[n+]1ccc(-c2nnco2)cc1
Result string: 10

Query string: Need pest or weed control at 500 g/ha, item O=S(=O)([O-])OCC[n+]1ccc(-c2csnn2)cc1
Result string: 20
